Origin of values: patent US8318769B2

- Test System: bradykinin 1 receptor (B1R) of the rat (Rattus norvegicus, UniProt P97583)
- Construct: expressed in transfected cells
- Sequence (P97583 1-337): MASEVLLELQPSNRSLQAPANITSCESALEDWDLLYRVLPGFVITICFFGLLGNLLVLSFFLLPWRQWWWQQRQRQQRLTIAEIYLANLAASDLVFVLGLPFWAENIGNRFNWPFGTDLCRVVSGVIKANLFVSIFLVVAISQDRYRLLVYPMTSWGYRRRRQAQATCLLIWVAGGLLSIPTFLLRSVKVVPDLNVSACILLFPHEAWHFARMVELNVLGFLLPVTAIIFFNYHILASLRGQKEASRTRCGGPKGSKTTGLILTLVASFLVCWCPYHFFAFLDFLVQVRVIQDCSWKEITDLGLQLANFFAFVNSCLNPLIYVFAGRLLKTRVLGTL
- Test Description: FLIPR Ca2+ assay, B1R antagonism, rat
- Assay type: cell-based
- Condition Context: CHO-K1, 10 μM test substance; CHO K1 cells with rat B1R gene (rB1R cells); Des-Arg9-bradykinin at EC80; % inhibition compared with the maximum achievable inhibition; read-out: B1R antagonism, rat [10 μM] % inhibition
Reported Metric: inhibition at 10 µM (%)
Provide only the numeric value, understood in %.

Solved cases (6 shown):
In [3]: df
Out[3]:
                                   compound                               test_system  observed
0  O=C(COCC1CCc2ccccc2N1S(=O)(=O)c1ccc(Cl)c(Cl)c1)N1CCC(OCCN2CCCC2)(c2cccnc2)CC1 (stereo not shown)  bradykinin 1 receptor (B1R) of the rat (Rattus norvegicus, UniProt P97583)       101
1  COc1cc(C)c(S(=O)(=O)N(C)CCOCC(=O)N2CCC(OCCCN3CCCC3)(c3cccnc3)CC2)c(C)c1  bradykinin 1 receptor (B1R) of the rat (Rattus norvegicus, UniProt P97583)       101
2  O=C(COCC1COc2ccccc2N1S(=O)(=O)c1ccccc1C(F)(F)F)N1CCC(OCCN2CCCC2)(c2ccncc2)CC1 (stereo not shown)  bradykinin 1 receptor (B1R) of the rat (Rattus norvegicus, UniProt P97583)        81
3  COc1cc(C)c(S(=O)(=O)N2CCCCC2COCC(=O)N2CCC(OCCCN3CCN(C)CC3)(c3cccnc3)CC2)c(C)c1 (stereo not shown)  bradykinin 1 receptor (B1R) of the rat (Rattus norvegicus, UniProt P97583)       103
4  O=C(CCCC1CCCCN1S(=O)(=O)c1cccc2ccccc12)N1CCC(OCCN2CCCC2)(c2cccnc2)CC1 (stereo not shown)  bradykinin 1 receptor (B1R) of the rat (Rattus norvegicus, UniProt P97583)        95
5  O=C(CC(NS(=O)(=O)c1ccc2ccccc2c1)c1ccccc1)N1CCC(OCCN2CCCC2)(c2cccnc2)CC1 (stereo not shown)  bradykinin 1 receptor (B1R) of the rat (Rattus norvegicus, UniProt P97583)        91

Continue with the next compound.
Give bradykinin 1 receptor (B1R) of the rat (Rattus norvegicus, UniProt P97583) inhibition at 10 µM for the following compound: Cc1cc(S(=O)(=O)N2CCCCC2CCC(=O)N2CCC(OCCN3CCCC3)(c3ccc(C(F)(F)F)cc3)CC2)c(C)cc1Cl (stereo not shown)
96
